target: Maternal embryonic leucine zipper kinase (Homo sapiens); test: Inhibition of recombinant human GST-tagged MELK catalytic domain expressed in baculovirus expression system using serine/threonine-17 peptide as substrate incubated for 60 mins in presence of ATP by Z'-LYTE assay
pIC50: −log10 of the molar value.
parameter: pIC50

Query string: Output pIC50 of C[C@@H]1C[C@H]1C(=O)N1CCN(c2cnc(C#N)c(-c3cnn(C)c3)n2)C[C@H]1C
Result string: < 4.00

----------
biological target: Tyrosine-protein kinase receptor TYRO3 (Homo sapiens, UniProt Q06418); experiment: Inhibition of recombinant human GST-tagged RSE catalytic domain (451 to 890 residues) expressed in baculovirus expression system using tyrosine-2 peptide as substrate incubated for 60 mins in presence of ATP by Z'-LYTE assay
parameter: IC50

Query string: Quote IC50 with test system Tyrosine-protein kinase receptor TYRO3 (Homo sapiens, UniProt Q06418) for C[C@@H]1C[C@H]1C(=O)N1CCN(c2cnc(C#N)c(-c3cnn(C)c3)n2)C[C@H]1C
Result string: > 100 µM

----------
target: Serine/threonine-protein kinase B-raf (Homo sapiens, UniProt P15056); experiment: Inhibition of recombinant full length human GST-tagged BRAF expressed in baculovirus expression system using tyrosine-1 peptide as substrate incubated for 60 mins in presence of ATP by Z'-LYTE assay
parameter: IC50

Query string: Output IC50 of C[C@@H]1C[C@H]1C(=O)N1CCN(c2cnc(C#N)c(-c3cnn(C)c3)n2)C[C@H]1C
Result string: > 100 µM

----------
target: DNA-dependent protein kinase catalytic subunit (Homo sapiens); test: Inhibition of recombinant human DNA-PK expressed in baculovirus expression system using serine/threonine-26 peptide as substrate incubated for 60 mins in presence of ATP by Z'-LYTE assay
Sequence (P78527 whole entry): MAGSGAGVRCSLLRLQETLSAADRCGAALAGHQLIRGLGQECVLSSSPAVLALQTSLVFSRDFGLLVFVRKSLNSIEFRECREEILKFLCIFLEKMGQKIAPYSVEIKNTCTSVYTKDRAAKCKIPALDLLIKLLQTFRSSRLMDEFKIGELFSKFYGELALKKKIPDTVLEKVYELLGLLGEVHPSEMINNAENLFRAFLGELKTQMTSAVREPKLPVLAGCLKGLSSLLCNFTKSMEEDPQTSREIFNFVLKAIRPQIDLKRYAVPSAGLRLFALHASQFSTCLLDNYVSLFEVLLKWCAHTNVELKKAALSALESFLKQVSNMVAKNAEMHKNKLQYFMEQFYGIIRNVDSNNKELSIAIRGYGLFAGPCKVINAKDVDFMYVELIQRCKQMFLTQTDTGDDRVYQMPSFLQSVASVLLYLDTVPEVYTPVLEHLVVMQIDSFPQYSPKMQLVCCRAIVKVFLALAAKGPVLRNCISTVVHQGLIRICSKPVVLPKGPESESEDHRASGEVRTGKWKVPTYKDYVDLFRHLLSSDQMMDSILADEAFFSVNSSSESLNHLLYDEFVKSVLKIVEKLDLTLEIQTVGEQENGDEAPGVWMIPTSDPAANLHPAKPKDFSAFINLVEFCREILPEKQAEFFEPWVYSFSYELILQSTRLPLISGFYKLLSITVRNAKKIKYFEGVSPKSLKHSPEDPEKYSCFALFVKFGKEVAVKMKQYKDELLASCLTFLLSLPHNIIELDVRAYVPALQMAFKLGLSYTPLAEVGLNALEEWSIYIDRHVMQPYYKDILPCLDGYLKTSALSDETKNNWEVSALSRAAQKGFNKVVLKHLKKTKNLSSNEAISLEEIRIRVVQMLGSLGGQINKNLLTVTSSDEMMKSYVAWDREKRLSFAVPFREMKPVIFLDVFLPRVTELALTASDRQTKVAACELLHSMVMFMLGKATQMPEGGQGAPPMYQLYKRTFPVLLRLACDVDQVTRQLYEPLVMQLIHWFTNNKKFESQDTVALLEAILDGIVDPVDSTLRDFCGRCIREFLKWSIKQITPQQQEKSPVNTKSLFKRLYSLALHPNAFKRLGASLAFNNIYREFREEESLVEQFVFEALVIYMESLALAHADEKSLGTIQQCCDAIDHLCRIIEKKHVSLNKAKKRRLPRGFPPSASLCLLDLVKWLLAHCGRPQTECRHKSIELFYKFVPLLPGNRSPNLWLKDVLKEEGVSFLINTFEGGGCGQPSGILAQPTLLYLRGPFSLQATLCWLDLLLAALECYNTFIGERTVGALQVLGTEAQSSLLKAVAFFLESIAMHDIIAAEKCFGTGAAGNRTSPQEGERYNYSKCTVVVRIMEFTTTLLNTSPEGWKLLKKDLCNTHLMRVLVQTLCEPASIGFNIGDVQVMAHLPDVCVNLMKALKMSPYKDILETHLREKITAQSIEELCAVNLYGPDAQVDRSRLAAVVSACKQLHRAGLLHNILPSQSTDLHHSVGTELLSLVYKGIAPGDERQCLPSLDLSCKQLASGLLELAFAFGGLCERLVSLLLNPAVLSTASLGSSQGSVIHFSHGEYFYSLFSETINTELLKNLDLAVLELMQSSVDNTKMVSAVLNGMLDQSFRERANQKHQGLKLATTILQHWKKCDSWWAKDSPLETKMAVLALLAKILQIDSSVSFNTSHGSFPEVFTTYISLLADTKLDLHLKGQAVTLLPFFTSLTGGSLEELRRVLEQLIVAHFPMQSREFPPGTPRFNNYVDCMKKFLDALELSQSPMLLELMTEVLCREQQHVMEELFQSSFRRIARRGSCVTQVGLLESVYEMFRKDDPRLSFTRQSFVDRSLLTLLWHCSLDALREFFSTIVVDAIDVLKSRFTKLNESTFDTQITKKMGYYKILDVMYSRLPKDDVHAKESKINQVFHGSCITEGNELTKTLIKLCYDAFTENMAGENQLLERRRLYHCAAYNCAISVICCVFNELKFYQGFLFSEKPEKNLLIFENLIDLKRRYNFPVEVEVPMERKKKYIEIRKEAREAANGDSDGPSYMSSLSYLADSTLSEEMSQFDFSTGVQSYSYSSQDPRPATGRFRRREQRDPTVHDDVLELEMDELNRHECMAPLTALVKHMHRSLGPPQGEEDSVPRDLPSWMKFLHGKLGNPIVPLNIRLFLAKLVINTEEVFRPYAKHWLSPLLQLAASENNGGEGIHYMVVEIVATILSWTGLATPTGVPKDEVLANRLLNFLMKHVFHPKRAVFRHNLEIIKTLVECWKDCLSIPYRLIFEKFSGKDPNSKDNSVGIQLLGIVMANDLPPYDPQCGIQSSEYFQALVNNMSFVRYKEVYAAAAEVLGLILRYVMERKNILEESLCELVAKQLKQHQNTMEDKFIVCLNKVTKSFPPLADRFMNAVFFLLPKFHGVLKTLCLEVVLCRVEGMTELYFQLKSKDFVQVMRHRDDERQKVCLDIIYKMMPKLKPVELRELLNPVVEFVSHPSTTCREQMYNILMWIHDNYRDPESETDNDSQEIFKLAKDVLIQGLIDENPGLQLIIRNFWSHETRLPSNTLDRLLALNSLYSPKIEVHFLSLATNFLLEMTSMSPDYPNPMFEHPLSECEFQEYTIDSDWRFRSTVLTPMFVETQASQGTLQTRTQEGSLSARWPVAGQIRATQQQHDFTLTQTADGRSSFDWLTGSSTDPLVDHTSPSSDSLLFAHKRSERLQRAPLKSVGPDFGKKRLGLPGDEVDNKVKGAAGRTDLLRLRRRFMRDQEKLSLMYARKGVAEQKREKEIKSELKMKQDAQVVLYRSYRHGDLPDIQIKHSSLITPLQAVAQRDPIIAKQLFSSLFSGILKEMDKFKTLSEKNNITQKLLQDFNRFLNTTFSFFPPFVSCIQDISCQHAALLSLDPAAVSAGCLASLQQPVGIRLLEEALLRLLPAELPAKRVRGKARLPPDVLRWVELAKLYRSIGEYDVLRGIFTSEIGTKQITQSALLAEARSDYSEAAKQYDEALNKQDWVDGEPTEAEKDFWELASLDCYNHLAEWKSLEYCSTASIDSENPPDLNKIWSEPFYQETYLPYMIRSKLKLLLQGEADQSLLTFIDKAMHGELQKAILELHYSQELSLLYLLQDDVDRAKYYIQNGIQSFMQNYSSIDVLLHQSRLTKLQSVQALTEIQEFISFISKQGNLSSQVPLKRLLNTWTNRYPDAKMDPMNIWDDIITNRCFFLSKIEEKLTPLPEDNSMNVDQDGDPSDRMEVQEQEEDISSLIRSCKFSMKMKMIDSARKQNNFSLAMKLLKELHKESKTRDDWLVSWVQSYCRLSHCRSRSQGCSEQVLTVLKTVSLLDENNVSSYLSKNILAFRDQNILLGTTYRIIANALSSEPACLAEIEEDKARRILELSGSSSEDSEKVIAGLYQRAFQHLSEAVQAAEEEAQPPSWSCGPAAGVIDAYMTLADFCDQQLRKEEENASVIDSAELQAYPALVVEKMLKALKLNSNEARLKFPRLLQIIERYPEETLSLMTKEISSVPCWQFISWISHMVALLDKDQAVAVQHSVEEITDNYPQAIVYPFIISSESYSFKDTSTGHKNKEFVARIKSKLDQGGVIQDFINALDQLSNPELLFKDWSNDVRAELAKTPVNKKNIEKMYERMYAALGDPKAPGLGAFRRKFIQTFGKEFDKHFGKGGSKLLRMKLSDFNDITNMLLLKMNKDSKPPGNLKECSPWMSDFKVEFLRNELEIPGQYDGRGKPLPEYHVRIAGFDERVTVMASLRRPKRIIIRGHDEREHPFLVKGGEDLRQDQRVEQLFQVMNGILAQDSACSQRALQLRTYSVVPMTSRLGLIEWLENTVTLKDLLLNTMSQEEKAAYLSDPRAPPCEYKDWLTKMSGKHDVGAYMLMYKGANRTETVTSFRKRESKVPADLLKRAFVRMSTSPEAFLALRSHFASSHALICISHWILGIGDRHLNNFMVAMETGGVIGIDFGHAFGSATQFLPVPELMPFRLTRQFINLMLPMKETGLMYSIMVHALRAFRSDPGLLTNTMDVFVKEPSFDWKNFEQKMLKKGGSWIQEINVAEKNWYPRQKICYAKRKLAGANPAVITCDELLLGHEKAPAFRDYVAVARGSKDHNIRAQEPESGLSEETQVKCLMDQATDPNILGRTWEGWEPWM
parameter: IC50

Query string: Output IC50 of C[C@@H]1C[C@H]1C(=O)N1CCN(c2cnc(C#N)c(-c3cnn(C)c3)n2)C[C@H]1C
Result string: > 100 µM

----------
biological target: RAF proto-oncogene serine/threonine-protein kinase (Homo sapiens, UniProt P04049, Y340D/Y341D); test: Inhibition of recombinant human GST-tagged RAF1 Y340D Y341D mutant catalytic domain expressed in baculovirus expression system using serine/threonine-3 peptide as substrate incubated for 60 mins in presence of ATP by Z'-LYTE assay
parameter: IC50

Query string: Output IC50 of C[C@@H]1C[C@H]1C(=O)N1CCN(c2cnc(C#N)c(-c3cnn(C)c3)n2)C[C@H]1C
Result string: > 100 µM

----------
molecular target: Platelet-derived growth factor receptor alpha (Homo sapiens, UniProt P16234, D842V); experiment: Inhibition of recombinant human GST-tagged PDGFRalpha D842V cytoplasmic domain expressed in baculovirus expression system using tyrosine-4 peptide as substrate incubated for 60 mins in presence of ATP by Z'-LYTE assay
Sequence (P16234 24-1089 D842V limits assumed): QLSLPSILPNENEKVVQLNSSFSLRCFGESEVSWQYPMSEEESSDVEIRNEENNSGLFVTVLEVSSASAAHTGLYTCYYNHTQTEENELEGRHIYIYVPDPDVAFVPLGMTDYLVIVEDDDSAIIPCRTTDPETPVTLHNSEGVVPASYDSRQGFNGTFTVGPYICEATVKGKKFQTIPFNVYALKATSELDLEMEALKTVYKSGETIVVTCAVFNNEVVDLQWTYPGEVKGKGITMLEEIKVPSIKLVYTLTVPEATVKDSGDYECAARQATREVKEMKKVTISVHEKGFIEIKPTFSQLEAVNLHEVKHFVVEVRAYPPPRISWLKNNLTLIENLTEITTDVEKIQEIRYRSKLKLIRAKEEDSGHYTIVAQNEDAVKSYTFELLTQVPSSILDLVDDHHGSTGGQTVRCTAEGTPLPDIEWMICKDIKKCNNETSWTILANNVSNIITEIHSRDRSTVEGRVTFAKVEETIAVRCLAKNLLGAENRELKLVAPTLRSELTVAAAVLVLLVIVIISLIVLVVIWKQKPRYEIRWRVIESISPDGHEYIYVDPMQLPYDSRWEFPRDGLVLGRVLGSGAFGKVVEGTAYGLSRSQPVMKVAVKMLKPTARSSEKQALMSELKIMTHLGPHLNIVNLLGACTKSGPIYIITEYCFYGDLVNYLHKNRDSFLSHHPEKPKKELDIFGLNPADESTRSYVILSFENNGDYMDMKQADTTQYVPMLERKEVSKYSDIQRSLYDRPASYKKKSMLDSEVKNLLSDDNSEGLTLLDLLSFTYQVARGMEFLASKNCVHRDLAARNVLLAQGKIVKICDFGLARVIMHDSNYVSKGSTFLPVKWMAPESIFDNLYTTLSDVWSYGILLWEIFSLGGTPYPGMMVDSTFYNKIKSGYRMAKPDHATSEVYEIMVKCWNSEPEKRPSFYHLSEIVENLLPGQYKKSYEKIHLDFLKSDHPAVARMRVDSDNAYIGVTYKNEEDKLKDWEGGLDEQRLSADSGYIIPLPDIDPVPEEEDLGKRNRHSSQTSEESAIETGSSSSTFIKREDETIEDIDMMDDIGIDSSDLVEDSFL
parameter: IC50

Query string: Output IC50 of C[C@@H]1C[C@H]1C(=O)N1CCN(c2cnc(C#N)c(-c3cnn(C)c3)n2)C[C@H]1C
Result string: > 100 µM

----------
target: Dual specificity protein kinase CLK1 (Homo sapiens, UniProt P49759); assay: Inhibition of recombinant human GST-tagged CLK1 catalytic domain (129 to 484 residues) expressed in Escherichia coli expression system using serine/threonine-9 peptide as substrate incubated for 60 mins in presence of ATP by Z'-LYTE assay
parameter: IC50

Query string: Output IC50 of C[C@@H]1C[C@H]1C(=O)N1CCN(c2cnc(C#N)c(-c3cnn(C)c3)n2)C[C@H]1C
Result string: > 100 µM

----------
target: MAP kinase-activated protein kinase 3 (Homo sapiens, UniProt Q16644); assay: Inhibition of recombinant His-tagged human full length MAPKAPK3 expressed in baculovirus expression system using Ser/Thr-04 peptide as substrate after 1 hr in presence of ATP by Z'LYTE assay
parameter: pIC50
// field semantics: pIC50 = negative decimal log of concentration (mol/L)

Query string: Output pIC50 of C[C@@H]1C[C@H]1C(=O)N1CCN(c2cnc(C#N)c(-c3cnn(C)c3)n2)C[C@H]1C
Result string: 4.63

----------
target: Protein kinase C delta type (Homo sapiens, UniProt Q05655); test: Inhibition of recombinant full length human GST-tagged PRKCD expressed in insect expression system using serine/threonine-7 peptide as substrate incubated for 60 mins in presence of ATP by Z'-LYTE assay
parameter: IC50

Query string: Output IC50 of C[C@@H]1C[C@H]1C(=O)N1CCN(c2cnc(C#N)c(-c3cnn(C)c3)n2)C[C@H]1C
Result string: > 100 µM

----------
test: Clearance in rat liver microsomes; assay type: ADME, Microsome; conditions: read-out: CLH
parameter: CLint scaled

Query string: Output CLint scaled of Cn1cc(-c2ncc(C#N)c(N3C[C@@H]4C[C@H]3CN4C(=O)C3CC3)n2)cn1
Result string: < 36 mL/min/kg

Query string: Output CLint scaled of C[C@@H]1CN(c2nc(-c3cnn(C)c3)ncc2C#N)CCN1C(=O)C1CCC1
Result string: < 36 mL/min/kg

Query string: Output CLint scaled of C[C@@H]1CN(c2nc(-c3cnn(C)c3)ncc2C#N)CCN1C(=O)C1(C)CC1
Result string: < 36 mL/min/kg

Query string: Output CLint scaled of C[C@@H]1CN(c2cnc(C#N)c(-c3cnn(C)c3)n2)CCN1C(=O)C1CC1
Result string: < 36 mL/min/kg

Query string: Output CLint scaled of C[C@@H]1CN(c2nc(-c3cnn(C)c3)ncc2C#N)CCN1C(=O)C1CC1
Result string: < 36 mL/min/kg

Query string: Output CLint scaled of C[C@@H]1C[C@H]1C(=O)N1CCN(c2nc(-c3cnn(C)c3)ncc2C#N)C[C@H]1C
Result string: 54 mL/min/kg

Query string: Output CLint scaled of Cn1cc(-c2ncc(C#N)c(N3C[C@@H]4C[C@H]3CN4CC3CC3)n2)cn1
Result string: 158 mL/min/kg

Query string: Output CLint scaled of Cn1cc(-c2ncc(C#N)c(N3CC4CCC(C3)N4c3cccc(F)c3)n2)cn1
Result string: 529 mL/min/kg

Query string: Output CLint scaled of C[C@@H]1C[C@H]1C(=O)N1CCN(c2cnc(C#N)c(-c3cnn(C)c3)n2)C[C@H]1C
Result string: 47 mL/min/kg

Query string: Output CLint scaled of Cn1cc(-c2ncc(C#N)c(N3CCN(c4cccc(F)c4)C(C)(C)C3)n2)cn1
Result string: 2050 mL/min/kg

Query string: Output CLint scaled of CC1CC1C(=O)N1CCN(c2nc(-c3cnn(C)c3)ncc2C#N)C[C@H]1C (mixture of isomers)
Result string: < 36 mL/min/kg

Query string: Output CLint scaled of Cn1cc(-c2ncc(C#N)c(N3C[C@@H]4C[C@H]3CN4S(=O)(=O)C3CC3)n2)cn1
Result string: < 36 mL/min/kg

Query string: Output CLint scaled of Cn1cc(-c2ncc(C#N)c(N3C[C@@H]4C[C@H]3CN4c3cccc(F)c3)n2)cn1
Result string: 1080 mL/min/kg

Query string: Output CLint scaled of C[C@@H]1CN(c2ncc(C#N)c(-c3cnn(C)c3)n2)CCN1C(=O)C1CC1
Result string: 39 mL/min/kg

Query string: Output CLint scaled of C[C@@H]1CN(c2nc(-c3cnn(C)c3)cnc2C#N)CCN1C(=O)C1CC1
Result string: 39 mL/min/kg

Query string: Output CLint scaled of CCC(=O)N1CCN(c2nc(-c3cnn(C)c3)ncc2C#N)C[C@H]1C
Result string: < 36 mL/min/kg

----------
molecular target: Mitogen-activated protein kinase kinase kinase 8 (Homo sapiens, UniProt P41279); assay: Inhibition of recombinant human GST-tagged MAP3K8 catalytic domain expressed in baculovirus expression system using serine/threonine-3 peptide as substrate incubated for 60 mins in presence of ATP by Z'-LYTE assay
pIC50: −log10 of the molar value.
parameter: pIC50

Query string: Output pIC50 of C[C@@H]1C[C@H]1C(=O)N1CCN(c2cnc(C#N)c(-c3cnn(C)c3)n2)C[C@H]1C
Result string: < 4.00

----------
target: Tyrosine-protein kinase Lck (Homo sapiens); assay: Inhibition of recombinant full length human His-tagged LCK expressed in baculovirus expression system using tyrosine-2 peptide as substrate incubated for 60 mins in presence of ATP by Z'-LYTE assay
parameter: IC50

Query string: Quote IC50 with test system Tyrosine-protein kinase Lck (Homo sapiens) for C[C@@H]1C[C@H]1C(=O)N1CCN(c2cnc(C#N)c(-c3cnn(C)c3)n2)C[C@H]1C
Result string: > 100 µM

----------
biological target: Phosphatidylinositol 3-kinase catalytic subunit type 3 (Homo sapiens); test: Inhibition of recombinant full length human GST-tagged PIK3C3 expressed in baculovirus expression system using PI lipid as substrate incubated for 60 mins in presence of ATP by Adapta assay
pIC50: −log10 of the molar value.
parameter: pIC50

Query string: Output pIC50 of C[C@@H]1C[C@H]1C(=O)N1CCN(c2cnc(C#N)c(-c3cnn(C)c3)n2)C[C@H]1C
Result string: < 4.00

----------
target: Tyrosine-protein kinase JAK2 (Homo sapiens); assay: Inhibition of human recombinant N-terminal GST tagged JAK2 JH1 catalytic domain (532 to 1132 residues) expressed in baculovirus expression system using Tyr6 peptide as measured after 1 hr in presence of ATP by Z'-LYTE assay
parameter: IC50

Query string: Output IC50 of C[C@@H]1C[C@H]1C(=O)N1CCN(c2cnc(C#N)c(-c3cnn(C)c3)n2)C[C@H]1C
Result string: > 100 µM
